- system_tested: human Factor IXa (human, UniProt P00740 47-191; P00740 227-461)
- procedure_text: cell-based or functional assay
Square brackets hold non-standard residues; d marks the D form. Ends that are not written are not given here. NMeR = CN[C@@H](CCCNC(=N)N)C(=O)O; NMeF = CN[C@@H](Cc1ccccc1)C(=O)O
measured_endpoint: EC50 [µM], FXa generation assay

Worked examples follow.
| binder | measured_endpoint | meas_value |
| --- | --- | --- |
| GIQGSEVACRASFCRLFEQGHV | EC50 [µM], FXa generation assay | > 50 µM |
| RRAPGKLTCLASYCWLFEPGIAQPYAKSPTRN [RRAPGKLTCLASYCWLF EPGIA QPYAKSPTRN] | EC50 [µM], FXa generation assay | > 1 µM |
| GKLQCLASYCWLFWTGIA | EC50 [µM], FXa generation assay | < 0.5 µM |

Batch: EC50 [µM], FXa generation assay for all items listed.
1. KLTCLASYCWL[NMeF] (cysteine pairing not given here) [KLTCLASYCWL-MePhe]
2. [NMeR]RAPGKLTCLASYCWLFWTGIA (cysteine pairing not given here) [MeArg-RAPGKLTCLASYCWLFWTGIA]
3. KLTKLASYEWLF [KLT-Lys-LASY-Glu-WLF]
4. SKQGRPISPD[dR]RAAGKLTCLASYCWLFWTGI (not fully specified; printed as SKQGRPISPDrRAAGKLTCLASYCWLFWTGI; cysteine pairing not given here) [SKQGRPISPDrRAAGKLTCLASYCWLFWTGI]
5. PRIRTVGPGSRSASGKLSCLASYCWLFWTGIA
6. GVEDRQLTCLASSCWVFSRHSV

Solution:
1: > 1 µM; 2: > 1 µM; 3: < 0.5 µM; 4: < 0.5 µM; 5: < 0.5 µM; 6: > 1 µM

The reported numbers originate from patent US20140303084A1.
